- system.under.test: Recombinant Human Enteropeptidase (Homo sapiens (Human), UniProt P98073)
- Sequence (P98073 whole entry): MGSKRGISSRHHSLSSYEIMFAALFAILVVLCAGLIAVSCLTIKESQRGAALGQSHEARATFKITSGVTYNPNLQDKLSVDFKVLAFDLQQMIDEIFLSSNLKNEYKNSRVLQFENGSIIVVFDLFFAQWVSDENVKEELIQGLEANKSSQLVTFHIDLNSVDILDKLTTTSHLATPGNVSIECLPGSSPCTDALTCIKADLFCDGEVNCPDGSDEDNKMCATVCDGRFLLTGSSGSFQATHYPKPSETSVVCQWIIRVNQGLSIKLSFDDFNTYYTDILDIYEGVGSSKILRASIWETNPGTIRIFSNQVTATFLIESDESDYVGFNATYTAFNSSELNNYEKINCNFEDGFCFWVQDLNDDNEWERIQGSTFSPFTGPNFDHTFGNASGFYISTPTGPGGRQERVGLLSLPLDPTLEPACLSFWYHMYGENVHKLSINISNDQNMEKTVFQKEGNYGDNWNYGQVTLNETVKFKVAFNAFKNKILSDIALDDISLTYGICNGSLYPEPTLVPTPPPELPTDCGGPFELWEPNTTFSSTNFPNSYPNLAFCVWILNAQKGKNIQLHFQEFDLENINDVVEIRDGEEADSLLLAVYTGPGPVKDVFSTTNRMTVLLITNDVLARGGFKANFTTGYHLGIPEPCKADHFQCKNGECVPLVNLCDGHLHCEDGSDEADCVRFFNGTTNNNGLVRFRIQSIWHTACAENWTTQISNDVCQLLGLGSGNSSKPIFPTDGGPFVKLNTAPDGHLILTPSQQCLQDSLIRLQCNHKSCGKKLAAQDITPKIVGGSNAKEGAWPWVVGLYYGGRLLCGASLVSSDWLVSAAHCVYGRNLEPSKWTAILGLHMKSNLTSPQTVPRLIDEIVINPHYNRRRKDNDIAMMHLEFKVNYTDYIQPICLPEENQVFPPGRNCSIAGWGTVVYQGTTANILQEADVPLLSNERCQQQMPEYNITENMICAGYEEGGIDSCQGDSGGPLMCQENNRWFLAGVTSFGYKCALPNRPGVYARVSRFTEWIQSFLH
- procedure.summary: Enteropeptidase Inhibition Assay
- setup.conditions: substrate Acetyl-Asp-Asp-Asp-Asp-Lys-AFC 30 μM, 30° C., 1 hour; Ki calculated from IC50 using Cheng-Prusoff equation
// values below are reported pKi
Please treat pKi as minus the base-10 logarithm of the molar concentration.

Below are worked cases with known answers.
Recorded pKi (molecule `CCN(CCC(=O)N[C@@H](CC(=O)OC(C)(C)C)C(=O)OC(C)(C)C)c1ncc(C(=O)Oc2ccc(C(=N)N)cc2F)s1` ): 7.40

pKi for `COC(=O)C(C)(C)CN(C)c1nc2ccc(C(=O)Oc3ccc(C(=N)N)cc3)cc2s1` is 8.22

New cases:
Looking up `COC(=O)CCN(C)c1ncc(C(=O)Oc2ccc(C(=N)N)cc2)s1` , I see its pKi listed as 7.55

Looking up `CN(CCCC(=O)O)C(=O)C1CCN(c2ncc(C(=O)Oc3ccc(C(=N)N)cc3)s2)CC1` , I see its pKi listed as 8.01

According to the records, this molecule `COC(=O)CNC(=O)C1CCN(c2ncc(C(=O)Oc3ccc(C(=N)N)cc3)s2)CC1` displays pKi of 7.74

`CCN(CCC(=O)OC)c1ncc(C(=O)Oc2ccc(C(=N)N)cc2F)s1` yielded pKi of 8.60

Notebook: `COC(=O)CCN(C)c1nc2ccc(C(=O)Oc3ccc(C(=N)N)cc3)cc2s1` , pKi read as 8.00

For record `N=C(N)c1ccc(OC(=O)c2ccc3nc(N4CCC(C(=O)O)CC4)sc3c2)cc1` the listed pKi is 8.13

====

Measured pKi by item
- system.under.test: Recombinant Human Enteropeptidase (Homo sapiens (Human), UniProt P98073)
- procedure.summary: Enteropeptidase Inhibition Assay
- setup.conditions: substrate Acetyl-Asp-Asp-Asp-Asp-Lys-AFC 30 μM, 30° C., 1 hour; Ki calculated from IC50 using Cheng-Prusoff equation
Convention used: pKi is expressed as -log10 of the molar concentration.

The compound identified as `CC(C)(CNc1nc2ccc(C(=O)Oc3ccc(C(=N)N)cc3)cc2s1)C(=O)O` registered its pKi at 9.05

Briefly, pKi measured for `CCN(CC(C)(C)C(=O)O)c1nc2ccc(C(=O)Oc3ccc(C(=N)N)cc3)cc2s1` : 8.05

Record summary for `COC(=O)C1CCN(c2nc3ccc(C(=O)Oc4ccc(C(=N)N)cc4)cc3s2)CC1` : reported pKi = 7.89

Read the next record carefully.
Recorded result, `COC(=O)C(C)(C)CNc1nc2ccc(C(=O)Oc3ccc(C(=N)N)cc3)cc2s1` , pKi: 7.72

====

- system.under.test: Recombinant Human Enteropeptidase (Homo sapiens (Human))
- procedure.summary: Enteropeptidase Inhibition Assay
- setup.conditions: substrate Acetyl-Asp-Asp-Asp-Asp-Lys-AFC 30 μM, 30° C., 1 hour; Ki calculated from IC50 using Cheng-Prusoff equation
endpoint.label: Ki (nM)
Number only, in nM; omit the unit.

As a guide, the following entries are already answered.
With Recombinant Human Enteropeptidase (Homo sapiens (Human)) as the test system, N=C(N)c1ccc(OC(=O)c2cnc(N3CCC(C(=O)O)C3)s2)cc1 (centres unmarked) showed Ki of 5.4

Known value: Recombinant Human Enteropeptidase (Homo sapiens (Human)) Ki of the compound `CN(CCCC(=O)O)c1ncc(C(=O)Oc2ccc(C(=N)N)cc2)s1` equals 5.7

Sample `COC(=O)CCCN(C)C(=O)C1CCN(c2ncc(C(=O)Oc3ccc(C(=N)N)cc3)s2)CC1` , system: Recombinant Human Enteropeptidase (Homo sapiens (Human)). Its Ki is 17

Lab entry: Recombinant Human Enteropeptidase (Homo sapiens (Human)) assay, compound `COc1ccc(NC(=O)C2CCN(c3ncc(C(=O)Oc4ccc(C(=N)N)cc4)s3)CC2)cc1` , Ki = 9.7

Considering `COC(=O)CCNC(=O)C1CCN(c2ncc(C(=O)Oc3ccc(C(=N)N)cc3)s2)CC1` , its Ki with Recombinant Human Enteropeptidase (Homo sapiens (Human)) was recorded as 18

Next:
Record for `CCN(CCC(=O)Nc1ccc(C(=O)OC)cc1)c1ncc(C(=O)Oc2ccc(C(=N)N)cc2F)s1` under target or system Recombinant Human Enteropeptidase (Homo sapiens (Human)): Ki reported as 14

Summary line: `COC(=O)C(C)(C)CNC(=O)C1CCN(c2ncc(C(=O)Oc3ccc(C(=N)N)cc3F)s2)CC1` , Recombinant Human Enteropeptidase (Homo sapiens (Human)), reported Ki = 2.5

Ki value, target or system Recombinant Human Enteropeptidase (Homo sapiens (Human)), for `CCN(CCC(=O)N[C@H](CCC(=O)O)C(=O)O)c1ncc(C(=O)Oc2ccc(C(=N)N)cc2F)s1` : 0.57

Where do the numbers come from? From patent US11447480B2.
